Can you tell me activity at 10000 µM for the items I'm about to list?
# Tested on: E. aerogenes ATCC13048e
# procedureSummary: Relative respiratory activity with 22 effectors (Example 3)
# Type: cell-based, Enterobacter aerogenes
# particulars: Klebsiella aerogenes, ATCC13048E; effector 10 mM, 5 μM DCIP, no effector = 100%, n = 26; read-out: relative %-respiratory activity
# number only, unit % dropped from output

Prompt: Which activity at 10000 µM reading was recorded for the compound CC(O)C(=O)O (stereo not shown) [Lactic acid, lactic acid] ?
Response: 182

Prompt: Another: OC[C@H]1O[C@@H]2O[C@H]3[C@H](O)[C@@H](O)[C@@H](O[C@H]4[C@H](O)[C@@H](O)[C@@H](O[C@H]5[C@H](O)[C@@H](O)[C@@H](O[C@H]6[C@H](O)[C@@H](O)[C@@H](O[C@H]7[C@H](O)[C@@H](O)[C@@H](O[C@H]8[C@H](O)[C@@H](O)[C@@H](O[C@H]1[C@H](O)[C@H]2O)O[C@@H]8CO)O[C@@H]7CO)O[C@@H]6CO)O[C@@H]5CO)O[C@@H]4CO)O[C@@H]3CO [Beta-cyclodextrin]
Response: 110

Prompt: How about this compound: O=C(O)CC(=O)O [Malonic acid]
Response: 156

Prompt: Now give it for CC(=O)C(=O)O [Pyruvic acid] too.
Response: 209
